# target-or-system: zif268 DBD R18Q/E21N (QN) (UniProt P08046 331-420, R349Q;E352N)
# assay-remarks: EMSA (Scatchard x QuMFRA); derived; 30 mM Tris-HCl pH 8.0, 50 mM NaCl, 0.1 mg/ml BSA, 3 mM DTT, 20 uM ZnSO4, 5 ug/ml poly(dI-dC), 1 h on ice; 10% polyacrylamide gel
# reported Ka; entries follow
assay-readout: Ka

[[record]]
binder = "Zif_6 (AC) (dsDNA) DNA 1: TCGAGGTCGACGGTATCGCGTGGGACCTCCACTAGTTCTAGAGCGGCCGCCAC DNA 2: GTGGCGGCCGCTCTAGAACTAGTGGAGGTCCCACGCGATACCGTCGACCTCGA"
assay_readout = "Ka"
data_value = "21 10^6 M-1"

[[record]]
binder = "Zif_3 (CC) (dsDNA) DNA 1: TCGAGGTCGACGGTATCGCGTGGGCCCTCCACTAGTTCTAGAGCGGCCGCCAC DNA 2: GTGGCGGCCGCTCTAGAACTAGTGGAGGGCCCACGCGATACCGTCGACCTCGA"
assay_readout = "Ka"
data_value = "3.9 10^6 M-1"

